Assay system Prothrombin (Bos taurus); read-out recorded as Ki.
Property: Ki (nM)

INSERT INTO results (query_smiles, reported) VALUES
  ('N=C(N)c1cccc(C[C@H](NS(=O)(=O)c2cccc(NC(=O)CCN)c2)C(=O)N2CCC(CCNC(=O)NCc3ccccc3)CC2)c1', 230),
  ('CCOc1ccc(-c2cccc(S(=O)(=O)N[C@@H](Cc3cccc(C(=N)N)c3)C(=O)N3CCC(CCCC(=O)NC)CC3)c2)c(Cl)c1', 30),
  ('CNC(=O)NC1CCN(C(=O)[C@H](Cc2cccc(C(=N)N)c2)NS(=O)(=O)c2cccc(NC(=O)CCN)c2)CC1', 10800),
  ('N=C(N)c1cccc(C[C@H](NS(=O)(=O)c2cccc(NC(=O)CCN)c2)C(=O)N2CCC(CCNC(N)=O)CC2)c1', 140),
  ('CNC(=O)CCCC1CCN(C(=O)[C@H](Cc2cccc(C(=N)N)c2)NS(=O)(=O)c2cccc(-c3ccc(Cl)c(Cl)c3)c2)CC1', 3);
